# System: CA1 region of rat hippocampal slices
# PROCEDURE DETAILS: CA1 cell firing (fEPSP amplitude)
# Assay type: cell-based
# CONDITION PARAMETERS: five point cumulative concentration-response, 6 slices averaged
For each of the compounds below, state its pEC50.
Give bare numbers, as −log10 of the molar value.

Consider the compound shown here: "CCOC(=O)N1CCC[C@H](N2CCC(C(=O)NC3(C)CCC3)CC2)CC1" What is its recorded pEC50?
5.69

Consider the compound shown here: CCOC(=O)N1CCCC(N2CCC(F)(C(=O)NCC(C)C)CC2)CC1 (stereo not shown) What is its recorded pEC50?
5.03

Consider the compound shown here: CCOC(=O)N1CCCC(N2CCC(C(=O)NC3(C)CCC3)CC2)CC1 (stereo not shown) What is its recorded pEC50?
5.92

# input for lookup
Consider the compound shown here: CCOC(=O)N1CCCC(N2CCC(C(=O)NCC(C)C)CC2)CC1 (stereo not shown) What is its recorded pEC50?
5.39

###

For each of the compounds below, state its EC50.
# ASSAY SYSTEM: human muscarinic M3 receptor (Homo sapiens, UniProt P20309)
# Construct: expressed in transfected cells
# Sequence (P20309 whole entry): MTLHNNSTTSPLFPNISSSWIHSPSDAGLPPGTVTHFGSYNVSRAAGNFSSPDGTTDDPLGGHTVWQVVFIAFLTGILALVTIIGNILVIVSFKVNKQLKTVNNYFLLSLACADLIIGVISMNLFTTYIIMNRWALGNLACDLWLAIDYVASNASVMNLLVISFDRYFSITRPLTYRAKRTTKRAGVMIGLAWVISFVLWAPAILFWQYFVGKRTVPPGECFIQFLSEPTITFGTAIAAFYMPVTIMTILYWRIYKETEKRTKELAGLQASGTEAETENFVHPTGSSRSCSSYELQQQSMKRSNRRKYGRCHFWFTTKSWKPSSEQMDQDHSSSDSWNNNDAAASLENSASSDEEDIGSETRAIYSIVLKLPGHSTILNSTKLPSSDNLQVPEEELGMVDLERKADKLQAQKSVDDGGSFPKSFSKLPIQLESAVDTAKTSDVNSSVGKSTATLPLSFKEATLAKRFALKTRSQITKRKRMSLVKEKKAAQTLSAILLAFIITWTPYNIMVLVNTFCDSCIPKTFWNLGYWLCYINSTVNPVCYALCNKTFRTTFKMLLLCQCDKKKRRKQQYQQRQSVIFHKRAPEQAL
# PROCEDURE DETAILS: Phospho-ERK1/2 assay, muscarinic M3
# Assay type: cell-based
# CONDITION PARAMETERS: CHO cells expressing human M3; phospho-ERK1/2 Alphascreen; read-out: pEC50 M3 (converted)

Example compounds with recorded EC50:
Consider the compound shown here: CCOC(=O)N1CCCC(N2CCC(F)(C(=O)NCC3CC3)CC2)CC1 (centres unmarked) [Example 52] What is its recorded EC50?
> 20 µM

Consider the compound shown here: CCOC(=O)N1CCC(N2CCC(C(=O)NC(C)(C)C(C)C)CC2)CC1 [Example 3] What is its recorded EC50?
> 20 µM

Consider the compound shown here: CCOC(=O)N1CCCC(N2CCC(C(=O)NC(C)(C)C)CC2)CC1 (centres unmarked) [Example 7] What is its recorded EC50?
> 20 µM

Consider the compound shown here: CCOC(=O)N1CCCC(N2CCC(C(=O)NCC(C)(C)C)CC2)CC1 (centres unmarked) [Example 9] What is its recorded EC50?
13.2 µM

Consider the compound shown here: CCOC(=O)N1CCCC(N2CCC(C(=O)NCC3CCC3)CC2)CC1 (centres unmarked) [Example 11] What is its recorded EC50?
> 20 µM

Consider the compound shown here: CCOC(=O)N1CCCC(N2CCC(C(=O)N(CC)CC3CC3)CC2)CC1 (centres unmarked) [Example 26] What is its recorded EC50?
> 20 µM

Consider the compound shown here: CCOC(=O)N1CCCC(N2CCC(C#N)(C(=O)NC3(C)CCC3)CC2)CC1 (centres unmarked) [Example 82] What is its recorded EC50?
> 20 µM

# input for lookup
Consider the compound shown here: CC#CCOC(=O)N1CCCC(N2CCC(OC)(C(=O)NC3(C)CCC3)CC2)CC1 (centres unmarked) [Example 80] What is its recorded EC50?
> 20 µM

###

For each of the compounds below, state its Emax.
# ASSAY SYSTEM: human muscarinic M3 receptor (Homo sapiens, UniProt P20309)
# Construct: expressed in transfected cells
# PROCEDURE DETAILS: Phospho-ERK1/2 assay, muscarinic M3
# Format: cell-based
# CONDITION PARAMETERS: CHO, read-out: % Emax cf. ACh (M3)
Numbers only, in %.

Example compounds with recorded Emax:
// lookup Emax | system=human muscarinic M3 receptor (Homo sapiens, UniProt P20309) | key= CCOC(=O)N1CCC[C@H](N2CCC(C(=O)NC(C)(C)C)CC2)CC1 [Example 67]
4

// lookup Emax | system=human muscarinic M3 receptor (Homo sapiens, UniProt P20309) | key= CCOC(=O)N1CCCC(N2CCC(C(=O)NC(C)(C)C)CC2)CC1 (centres unmarked) [Example 7]
14

// lookup Emax | system=human muscarinic M3 receptor (Homo sapiens, UniProt P20309) | key= CCOC(=O)N1CCCC(N2CCC(F)(C(=O)NC(C)(C)C(C)C)CC2)CC1 (centres unmarked) [Example 44]
5

// lookup Emax | system=human muscarinic M3 receptor (Homo sapiens, UniProt P20309) | key= CCOC(=O)N1CCCC(N2CCC(C(=O)NCC3(C)CCC3)CC2)CC1 (centres unmarked) [Example 69]
14

# input for lookup
// lookup Emax | system=human muscarinic M3 receptor (Homo sapiens, UniProt P20309) | key= CCOC(=O)N1CCC[C@@H](N2CCC(C(=O)NC3(C)CCC3)CC2)CC1 [Example 66]
0
